Data origin, for the record: ChEMBL document CHEMBL3351681

- Test system: Plasmodium berghei
- assayName: Antiplasmodial activity against GFP-expressing liver stage Plasmodium berghei sporozoites infected in human Huh7 cells preincubated for 1 hr before infection at 5 uM measured after 48 hrs post infection by firefly luciferase reporter gene assay
- Format: functional
- conditionSummary: Huh-7
Activity calls are given as the source filed them. The rule behind the calls is not given here.
API: response.call in active, inactive

Reference set (3 entries):
>  <compound>
CC(=O)O[C@H]1C=C2[C@@H](CC[C@H](OC(C)=O)C2(C)C)[C@]2(C)CC[C@]3(C)[C@@H]([C@H](C)C[C@H](C=C(C)C)OC(C)=O)CC[C@@]3(C)[C@H]12

>  <discreteLabel>
active

$$$$
>  <compound>
CO[C@H]1C=C2[C@@H](CC[C@H](OC(=O)c3ccccc3)C2(C)C)[C@]2(C)CC[C@]3(C)[C@@H]([C@H](C)C[C@H](C=C(C)C)OC(=O)c4ccccc4)CC[C@@]3(C)[C@H]12 [KARAVOATE H]

>  <discreteLabel>
inactive

$$$$
>  <compound>
CO[C@H]1C=C2[C@@H](CC[C@H](OC(=O)c3ccc([N+](=O)[O-])cc3)C2(C)C)[C@]2(C)CC[C@]3(C)[C@@H]([C@H](C)C[C@H](C=C(C)C)OC(=O)c4ccc([N+](=O)[O-])cc4)CC[C@@]3(C)[C@H]12 [KARAVOATE J]

>  <discreteLabel>
inactive

$$$$

[Q] Would you mind telling me which call this test gave COc1ccc(C(=O)O[C@H]2CC[C@@H]3C(=C[C@H](OC)[C@@H]4[C@@]3(C)CC[C@]3(C)[C@@H]([C@H](C)C[C@H](C=C(C)C)OC(=O)c5ccc(OC)cc5)CC[C@@]43C)C2(C)C)cc1 [KARAVOATE N] ?
[A] inactive
